studyTarget: T1, huNav1.7α (human Nav1.7 alpha subunit, expressed without β subunits) (human, UniProt Q15858 1-1988)
T1 construct: also called HEK293 human Nav1.7α; HEKa Nav1.7α
assayComment: binding FACS, HEKa cells
This section presents binders with their documented pEC50 values.
Lab note — pEC50 values are minus log10 of concentrations in M.

F010301649 (VHH, also called F0103387G05(L11V, A14P, N82bS, N83R, V89L, R105Q)) VHH: EVQLVESGGGVVQPGGSLRLSCDASGRILRIGYMRWHRQGAGKQREFVARITDDSATDYADSVKGRFTISRDNAKNTVYLQMNSLRPEDTALYYCEALVTASVRGGSIHSGTYWGQGTLVTVSS
8.28
F010301850 (VHH, also called F0103387G05(L11V, A14P, D23A, H37Y, G40A, A41P, D58G, N82bS, N83R, V89L, R105Q)) VHH: EVQLVESGGGVVQPGGSLRLSCAASGRILRIGYMRWYRQAPGKQREFVARITDDSATGYADSVKGRFTISRDNAKNTVYLQMNSLRPEDTALYYCEALVTASVRGGSIHSGTYWGQGTLVTVSS
8.55
F010302308 (VHH, also called F0103387G05(L11V, A14P, D23A, H37Y, G40A, A41P, D58G, N73Y, N82bS, N83R, V89L, R105Q)) VHH: EVQLVESGGGVVQPGGSLRLSCAASGRILRIGYMRWYRQAPGKQREFVARITDDSATGYADSVKGRFTISRDYAKNTVYLQMNSLRPEDTALYYCEALVTASVRGGSIHSGTYWGQGTLVTVSS
8.74

Moving on to the next binder.
The binder listed as F010301644 (VHH, also called F0103387G05(L11V, A14P, H37Y, N82bS, N83R, V89L, R105Q)) VHH: EVQLVESGGGVVQPGGSLRLSCDASGRILRIGYMRWYRQGAGKQREFVARITDDSATDYADSVKGRFTISRDNAKNTVYLQMNSLRPEDTALYYCEALVTASVRGGSIHSGTYWGQGTLVTVSS shows pEC50 equal to 8.24
